Entries and their measured IC50 follow.
Assayed target: PDE4
Experiment description: In vitro activity against PDE isoenzyme
Condition parameters: PDE4
Assay readout: IC50 (µM)

[[record]]
compound = "CCCc1nn(C)c2c(=O)[nH]c(-c3cc(S(=O)(=O)N4CCN(C)CC4)ccc3OCC)nc12 [Sildenafil, reference compound]"
assayed_target = "PDE4"
assay_value = 5.83

[[record]]
compound = "CCCOc1ccc(S(=O)(=O)N(C)CCN2CCCC2)cc1-c1nc2c(CCC)nn(C)c2c(=O)[nH]1 [Maleate of compound Z]"
assayed_target = "PDE4"
assay_value = 4.07


----------
Assayed target: PDE9 (Homo sapiens)
Sequence (O76083 whole entry): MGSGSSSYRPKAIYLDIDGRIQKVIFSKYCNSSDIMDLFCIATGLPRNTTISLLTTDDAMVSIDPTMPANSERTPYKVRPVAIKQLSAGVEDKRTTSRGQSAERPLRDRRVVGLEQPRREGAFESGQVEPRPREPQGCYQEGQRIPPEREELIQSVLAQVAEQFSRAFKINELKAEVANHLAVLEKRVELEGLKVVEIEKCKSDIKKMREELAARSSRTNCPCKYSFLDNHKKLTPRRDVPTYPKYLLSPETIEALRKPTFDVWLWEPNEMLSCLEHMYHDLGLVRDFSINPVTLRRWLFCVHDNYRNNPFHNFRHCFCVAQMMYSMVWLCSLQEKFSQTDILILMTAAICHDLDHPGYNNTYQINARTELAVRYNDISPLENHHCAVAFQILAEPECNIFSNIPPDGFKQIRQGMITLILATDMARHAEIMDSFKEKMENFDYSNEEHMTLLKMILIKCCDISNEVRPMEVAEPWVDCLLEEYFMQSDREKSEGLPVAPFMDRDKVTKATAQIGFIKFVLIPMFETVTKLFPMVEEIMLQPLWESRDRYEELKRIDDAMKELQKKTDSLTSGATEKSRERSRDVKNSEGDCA
Assay readout: IC50

[[record]]
compound = "CCCOc1ccc(S(=O)(=O)N(C)CCN2CCCC2)cc1-c1nc2c(CCC)nn(C)c2c(=O)[nH]1 [Maleate of compound Z]"
assay_readout = "IC50"
assay_value = "> 100 µM"


----------
Experiment description: Comparison of solubility in water and buffer solutions
Format: physicochemical
Condition parameters: standard potassium hydrogen phthalate buffer solution, pH 4, aqueous buffer, thermodynamic from solid, potassium hydrogen phthalate buffer solution (pH 4.0); read-out: Solubility, buffer solution (pH 4.0)
Assay readout: solubility

[[record]]
smiles_record = "CCCOc1ccc(S(=O)(=O)N(C)CCN2CCCC2)cc1-c1nc2c(CCC)nn(C)c2c(=O)[nH]1"
assay_readout = "solubility"
assay_value = "> 5880 µg/mL"

